measured.on: MMP-13 (Homo sapiens)
Construct: made in house; host or cells: baculovirus / insect cells
assay.summary: In vitro MMP inhibition, Ki determination (fluorogenic substrate II)
Assay type: biochemical
condition.notes: human recombinant enzyme; 4 μM substrate II; room temperature, 1 hr; read-out: MMP-13 Ki
Counter-ions that a name gives are not always drawn.
Ki: recorded values
Give the number; nM is assumed, so skip it.

Completed entries (count: 3):
| compound | Ki / nM |
| --- | --- |
| CCCCCCCCC1CCN(S(=O)(=O)C2(C(=O)NO)CCOCC2)CC1 | 0.51 |
| CCCCc1ccc(N2CCN(S(=O)(=O)C3(C(=O)NO)CCN(CCOC)CC3)CC2)cc1 [Example 5, Dihydrochloride] | 0.522 |
| O=C(NO)C1(S(=O)(=O)N2CCC(c3ccc(CCC(F)(F)C(F)(F)F)cc3)CC2)CCOCC1 | 0.444 |

In the following, a different compound is considered.
Task: Would you kindly share the measured Ki for O=C(NO)C1(S(=O)(=O)N2CCN(c3ccc(CCC(F)(F)C(F)(F)F)cc3)CC2)CCOCC1 [Example 17, Hydrochloride] ?
Result: 0.328

====

measured.on: MMP-14 (Homo sapiens)
Construct: The catalytic domain enzyme was expressed in E. coli inclusion bodies, solubilized in urea; made in house
assay.summary: MMP-14 inhibition (in vitro Ki)
Format: biochemical
condition.notes: Table 8; read-out: MMP-14 Ki
Counter-ions that a name gives are not always drawn.
parameter: pKi
Scale: negative log10 of molar concentration, which is what pKi denotes.

| compound | measured.on | pKi |
| --- | --- | --- |
| CCCCC=CCCOC1CCN(S(=O)(=O)C2(C(=O)NO)CCOCC2)CC1 [Example A36C] | MMP-14 (Homo sapiens) | 5.72 |
| CCCCCCOCC1CCN(S(=O)(=O)C2(C(=O)NO)CCOCC2)CC1 | MMP-14 (Homo sapiens) | 5.14 |
| O=C(NO)C1(S(=O)(=O)N2CCC(c3cnc(OCCC4CC4)cn3)CC2)CCOCC1 | MMP-14 (Homo sapiens) | 5.87 |
| O=C(NO)C1(S(=O)(=O)N2CCC(CCCCOCCC(F)(F)F)CC2)CCOCC1 | MMP-14 (Homo sapiens) | 5.44 |
| CC(C)(C)CCOC1CCN(S(=O)(=O)C2(C(=O)NO)CCOCC2)CC1 [Example A36E] | MMP-14 (Homo sapiens) | 5.37 |
| CCC(CC)(C(=O)NO)S(=O)(=O)N1CCC(c2ccc(CCC(F)(F)C(F)(F)F)cn2)CC1 [Example A60, Hydrochloride] | MMP-14 (Homo sapiens) | 5.22 |

Task: Given the compound O=C(NO)C1(S(=O)(=O)N2CCC(OCCCCCCC(F)(F)F)CC2)CCOCC1 , what is its reported pKi?
Result: 5.57

Task: Quick one: CCOCCCCCC1CCN(S(=O)(=O)C2(C(=O)NO)CCOCC2)CC1
Result: 5.92

Task: Further, for O=C(NO)C1(S(=O)(=O)N2CCC(c3cnc(CCC(F)(F)C(F)(F)F)cn3)CC2)CCOCC1 ?
Result: 5.41

Task: Quick one: CCCCCCCCOC1CCN(S(=O)(=O)C2(C(=O)NO)CCOCC2)CC1 [Example A36B]
Result: 5.97

Task: Then what about the compound O=C(NO)C1(S(=O)(=O)N2CCC(CCCCCOCCC(F)(F)F)CC2)CCOCC1 ?
Result: 6.16

Task: Queued: O=C(NO)C1(S(=O)(=O)N2CCC(CCCCCC(F)(F)C(F)(F)F)CC2)CCOCC1
Result: 5.47

Task: Param item: CCCCCCOC1CCN(S(=O)(=O)C2(C(=O)NO)CCOCC2)CC1
Result: 5.71

Task: Repeat for the following compound: CCCCOCCCC1CCN(S(=O)(=O)C2(C(=O)NO)CCOCC2)CC1 [Example A36I]
Result: 5.20

Task: Query CCCCCOC1CCN(S(=O)(=O)C2(C(=O)NO)CCOCC2)CC1 [Example A36A] next
Result: 6.09

Task: Next up: CC(C)CCCOC1CCN(S(=O)(=O)C2(C(=O)NO)CCOCC2)CC1 [Example A36D]
Result: 5.39

Task: What about O=C(NO)C1(S(=O)(=O)N2CCC(CCCCCOCC(F)(F)F)CC2)CCOCC1 ?
Result: 5.77
